Assay: The drug is tested on Z-007 corresponding to rat gut metagenome with ENA study accession number: PRJEB37062 and ENA sample accession number: ERS12561807 for biotransformation under anaerobic condition. The drug concentrations were measured over 9 timepoints collected between 0 and 24 hours of incubation by liquid-chromatography-coupled mass spectrometry (LC–MS); note: call rule not given here
Conditions: 2 µM
Assay Endpoint: Bacterial Biotransformation

Consider the following illustrative entries.
NC(CO)(CO)CO.O=C(c1ccccc1)c1ccc2n1CCC2C(=O)O (stereo not drawn)	Compound NOT metabolized
COc1ccccc1N1CCN(CC(O)COc2cccc3ccccc23)CC1 (stereo not drawn)	Compound NOT metabolized
C#C[C@]1(O)CC[C@H]2[C@@H]3CCC4=CC(=O)CC[C@@H]4[C@H]3CC[C@@]21CC	Compound metabolized
CC(=O)OCC(=O)[C@@]1(O)[C@@H](C)C[C@H]2[C@@H]3CCC4=CC(=O)C=C[C@]4(C)[C@@]3(F)[C@@H](O)C[C@@]21C [BETAMETHASONE ACETATE]	Compound NOT metabolized
c1ccc([C@H]2CN3CCSC3=N2)cc1	Compound NOT metabolized

Please list Bacterial Biotransformation recorded for the compound CC(C(=O)O)c1ccc2c(c1)Cc1cccnc1O2 (stereo not drawn)
Compound NOT metabolized

Please list Bacterial Biotransformation recorded for the compound CCCc1nc(C(C)(C)O)c(C(=O)OCc2oc(=O)oc2C)n1Cc1ccc(-c2ccccc2-c2nnn[nH]2)cc1
Compound metabolized

Please list Bacterial Biotransformation recorded for the compound CCCCC(=O)N(Cc1ccc(-c2ccccc2-c2nnn[nH]2)cc1)[C@H](C(=O)O)C(C)C
Compound NOT metabolized

###

Test: The drug is tested on Z-023 corresponding to metagenome with ENA study accession number: PRJEB37062 and ENA sample accession number: ERS12561822 for biotransformation under anaerobic condition. The drug concentrations were measured over 9 timepoints collected between 0 and 24 hours of incubation by liquid-chromatography-coupled mass spectrometry (LC–MS)
Settings: 2 µM
Assay Endpoint: Bacterial Biotransformation

Consider the following illustrative entries.
NC(=O)N1c2ccccc2CC(=O)c2ccccc21 [OXCARBAZEPINE]	Compound metabolized
COC(=O)Nc1nc2ccc(C(=O)c3ccccc3)cc2[nH]1	Compound metabolized
O=c1[nH]c2ccccc2n1CCCN1CCC(n2c(=O)[nH]c3cc(Cl)ccc32)CC1	Compound NOT metabolized
CCCCC(=O)N(Cc1ccc(-c2ccccc2-c2nnn[nH]2)cc1)[C@H](C(=O)O)C(C)C	Compound NOT metabolized
O=C(O)COCCN1CCN(C(c2ccccc2)c2ccc(Cl)cc2)CC1 (centres undefined)	Compound metabolized

Please list Bacterial Biotransformation recorded for the compound CC(C)NCC(O)c1ccc(NS(C)(=O)=O)cc1 (centres undefined)
Compound NOT metabolized

Please list Bacterial Biotransformation recorded for the compound OC(CCN1CCCCC1)(c1ccccc1)C1CCCCC1 (centres undefined)
Compound metabolized

Please list Bacterial Biotransformation recorded for the compound C=CCN1CC[C@]23c4c5ccc(O)c4O[C@H]2C(=O)CC[C@@]3(O)[C@H]1C5
Compound NOT metabolized

Please list Bacterial Biotransformation recorded for the compound CCCC(=O)Nc1ccc(OCC(O)CNC(C)C)c(C(C)=O)c1 (centres undefined)
Compound metabolized

###

Assay: The drug is tested on WLS-170 corresponding to human gut metagenome with ENA study accession number: PRJEB37062 and ENA sample accession number: ERS12561762 for biotransformation under anaerobic condition. The drug concentrations were measured over 9 timepoints collected between 0 and 24 hours of incubation by liquid-chromatography-coupled mass spectrometry (LC–MS)
Conditions: 2 µM
Assay Endpoint: Bacterial Biotransformation

Consider the following illustrative entries.
CN1CCN(C(=O)O[C@H]2c3nccnc3C(=O)N2c2ccc(Cl)cn2)CC1	Compound NOT metabolized
CC(O)(CS(=O)(=O)c1ccc(F)cc1)C(=O)Nc1ccc(C#N)c(C(F)(F)F)c1 (configuration not stated) [BICALUTAMIDE]	Compound NOT metabolized
CC(C)c1nc(CN(C)C(=O)N[C@H](C(=O)N[C@@H](Cc2ccccc2)C[C@H](O)[C@H](Cc2ccccc2)NC(=O)OCc2cncs2)C(C)C)cs1	Compound metabolized
Fc1ccc([C@@H]2CCNC[C@H]2COc2ccc3c(c2)OCO3)cc1	Compound metabolized
O=C(Nc1ccccc1)OCC(CN1CCCCC1)OC(=O)Nc1ccccc1 (configuration not stated)	Compound metabolized
OC(CCN1CCCCC1)(c1ccccc1)C1CC2C=CC1C2 (configuration not stated)	Compound metabolized

Please list Bacterial Biotransformation recorded for the molecule COc1c(C)c2c(c(O)c1C/C=C(\C)CCC(=O)OCCN1CCOCC1)C(=O)OC2 [MYCOPHENOLATE MOFETIL]
Compound metabolized

Please list Bacterial Biotransformation recorded for the molecule CCCc1nc2c(C)cc(-c3nc4ccccc4n3C)cc2n1Cc1ccc(-c2ccccc2C(=O)O)cc1
Compound metabolized

Please list Bacterial Biotransformation recorded for the molecule O=C1NCC2(CCN(CCc3ccccc3)CC2)O1 [FENSPIRIDE]
Compound NOT metabolized

Please list Bacterial Biotransformation recorded for the molecule C#C[C@]1(O)CC[C@H]2[C@@H]3CCC4=CC(=O)CC[C@@H]4[C@H]3CC[C@@]21CC
Compound metabolized

Please list Bacterial Biotransformation recorded for the molecule O=C(NCc1ccccc1)OCCO [BURAMATE]
Compound NOT metabolized

Please list Bacterial Biotransformation recorded for the molecule COC1=CC(=O)C[C@@H](C)[C@]12Oc1c(Cl)c(OC)cc(OC)c1C2=O
Compound metabolized

Please list Bacterial Biotransformation recorded for the molecule O=P(O)(O)O.c1ccc(CN(CC2=NCCN2)c2ccccc2)cc1 [ANTAZOLINE PHOSPHATE]
Compound metabolized

Please list Bacterial Biotransformation recorded for the molecule Cc1ccc(S(=O)(=O)NC(=O)NN2CC3CCCC3C2)cc1 (configuration not stated) [GLICLAZIDE]
Compound metabolized
